- target: T1, human serum albumin (human, UniProt P02768 25-609)
- T1 construct: also called HSA
- assayInfo: SPR (Biacore), HSA amine-coupled on CM5, pH 7
A collection of binders and their measured koff
Provide only the numeric value, understood in s⁻¹.

# binder, uom, koff
measured = [
    ("4A6 (VHH, Tested as periplasmic extract) VHH: EVQLVESGGGLVQPGGSLRLSCAASPFTLDYYAIGWFRQAPGKEREGVSCSTSHGKTYHADSVKGRFTISRDNAKNTVYLQMNSLKPEDTAVYYCAAGACMGGSGYEADFGSWGQGTQVTVSS", "s⁻¹", 0.00173),
    ("4C4 (VHH, Tested as periplasmic extract) VHH: EVQLVESGGGLVQAGDSLRLSCAASGRPFMSYVMGWFRRAPGKEREFVGGINWGSGNTWYTDSVLGRFTISRDNAKNTVYLQMNSLKPEDTAVYYCATAAGVGYYRYERQYDYWGQGTQVTVSS", "s⁻¹", 0.000499),
    ("4D10 (VHH, Tested as periplasmic extract) VHH: EVQLVESGGGLVQAGDSLRLSCTASERPFMSYVMGWFRRAPGKDREFVGAITWSGINTWYSDSVLGRFTISRDNAKNTVYLQMNSLKPEDTAVYYCAVADGVGLYRYERQYDYWGQGTQVTVSS", "s⁻¹", 0.000523),
    ("4B5 (VHH, Tested as periplasmic extract) VHH: EVQLVESGGGLVQAGDSLRLSCAASGRTYSRNAMAWFRQAPGKEREFVAGIDWSSENTRYIDSVKGRFTISRDNAKSTMYLQMNSLKPEDTAVYYCAAGTSWGALASRLEAAYSSWGQGTQVTVSS", "s⁻¹", 0.00174),
    ("4D7 (VHH, Tested as periplasmic extract) VHH: EVQLVESGGGLVQAGDSLRLSCAASGRPFSSYVMGWFRRAPGKEREFVGGINWNSGNTWYSDSVLGRFTISRDNAKNTVDLQMNSLKPEDTAVYYCATASGVGYYRYERQYDYWGQGTQVTVSS", "s⁻¹", 0.000653),
    ("4C11 (albumin binder) (VHH, Tested as periplasmic extract) VHH: EVQLVESGGGLVQAGGSLRLSCAASGLSFSRYAMGWFRQAPGKQREYVAVISSSDTTYYTNSAKGRFTISRDNAENTVYLQMNSLKPEDTAVYFCAADSFVTALQTLTQINYWGQGTQVTVSS", "s⁻¹", 0.0263),
    ("4C5 (VHH, Tested as periplasmic extract) VHH: EVQLVESGGGLVQAGDSLRLSCAASGRPFSAYVMGWFRRAPGKEREFVGGINWNSANTWYTDSVLGRFTISKDNAKNTVYLQMNSLKPEDTAVYYCAAAGGVGYYRYERQYDYWGQGTQVTVSS", "s⁻¹", 0.000541),
]

Okay, next one:
Entry 4C8 (VHH, Tested as periplasmic extract) VHH: EVQLVESGGGLVQAGDSLRLSCAASGRTYTPYVMGWFRRAPGKEREFVGAVSWSGTNTWYTDSVKGRFTISRDNAKNTVYLQMNSLKPEDTAVYYCAAGDGVGIYRYEHQYDYWGQGTQVTVSS : reported koff = ? 0.000624
